system: Hepatitis C virus; assay: Antiviral activity against Hepatitis C virus Con1 genotype 1b expressing NS2-NS5B infected in human HuH7 cells after 72 hrs by luciferase reporter gene assay; format: functional, organism-based, Hepacivirus hominis; conditions: isolate Con1, Huh-7, 72 h
A collection of molecules and their measured pEC50
Note: pEC50 values are expressed as the negative base-10 logarithm of concentration in M.

Here are 2 molecules together with their reported answers.
# compound structure string, pEC50
measured = [
    ("O=C(O)/C=C/c1ccc(NC(=O)C2(NC(=O)c3ccc4c(c3)nc(-c3ccoc3)n4C3CCCCC3)CCNCC2)cc1", 5.30),
    ("COc1ccc2c(c1)OCCn1c-2c(C2CCCCC2)c2ccc(C(=O)NC3(C(=O)Nc4ccc(/C=C/C(=O)O)cc4)CCC3)cc21", 8.40),
]

Tell me the measured pEC50 of `Cn1c(C2(NC(=O)c3ccc4c5c(n(C)c4c3)CCCC53CCCCC3)CCC2)nc2cc3cc(C(=O)O)sc3cc21` , please.
7.42

====

test system: Hepatitis C virus; experiment: Antiviral activity against Hepatitis C virus Con1 genotype 1b expressing NS2-NS5B infected in human HuH7 cells after 72 hrs by luciferase reporter gene assay; assay type: functional, organism-based, Hepacivirus hominis; details: isolate Con1, Huh-7, 72 h
reported property: EC50 (nM)
Lab book: enter the figure in nM, no units written.

# compound structure string, value unit, numeric value
rows = [
    ("Cn1c(C2(NC(=O)c3ccc4c5c(n(C)c4c3)CCCC53CCCCC3)CCC2)nc2ccc(/C=C/C(=O)O)cc21", "nM", 49),
    ("O=C(O)COc1ccc2[nH]cc(C[C@H](NC(=O)c3ccc4c(c3)nc(-c3ccoc3)n4C3CCCCC3)C(=O)O)c2c1", "nM", 65000),
]

Let us move to another entry and its EC50.
Fill blank: measured EC50 of the molecule `CCOc1cc(NC(=O)C2(NC(=O)c3ccc4c5c(n(C)c4c3)CCCC53CCCCC3)CCC2)ccc1/C=C/C(=O)O` is ____.
94
